target: kappa opioid receptor (OPRK1) (Homo sapiens (Human), UniProt P41145); experiment: OPRK1 antagonist assay (b-arrestin-2-TEV / b-lactamase reporter cell line, EC80 U-50488 challenge); format: cell-based; details: read-out: IC50 nM (% inhib if other than 50%); antagonist mode vs EC80 U-50488; NA = not active at concentrations up to 10 μM
Sequence (P41145 whole entry): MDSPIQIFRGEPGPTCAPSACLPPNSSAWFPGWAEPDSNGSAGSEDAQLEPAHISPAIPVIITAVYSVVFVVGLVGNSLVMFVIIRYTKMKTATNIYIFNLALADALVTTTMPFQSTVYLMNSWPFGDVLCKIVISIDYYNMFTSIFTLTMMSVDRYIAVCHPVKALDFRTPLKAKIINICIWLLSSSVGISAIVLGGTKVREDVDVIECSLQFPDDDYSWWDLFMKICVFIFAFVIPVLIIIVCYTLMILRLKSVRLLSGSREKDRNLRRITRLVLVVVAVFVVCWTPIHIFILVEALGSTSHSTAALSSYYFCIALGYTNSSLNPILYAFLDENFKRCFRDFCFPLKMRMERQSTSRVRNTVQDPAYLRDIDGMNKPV
metric-name: IC50 (nM)

Example entries begin here.
compound	metric-name	endpoint-result
COC(=O)c1cc(I)cnc1N1CCC(NC2CCCCCC2)C(CO)C1 (stereo not drawn) [compound 75]	IC50	36
COC(=O)c1cc(I)cnc1N1CCC(NC2CCCCC2)C1 (stereo not drawn) [compound 35]	IC50	88
CCOC(=O)c1cc(C(=O)OC)c(C)nc1N1CCC(NC2CCCCC2)C1 (stereo not drawn) [compound 104]	IC50	2200
COC(=O)c1cc(Br)cnc1N1CC(NC2CCCCC2)C1 [compound 67]	IC50	1400
CO[C@@H]1CN(c2nc3ccc(C)cc3cc2C(C)=O)CC[C@@H]1NC1CCCCC1 [compound 484]	IC50	347

[A] c1cnc(-c2cc3ccccc3nc2N2CCC(NC3CCOCC3)CC2)nc1 [compound 286]
[B] COC(=O)c1cc(Br)cnc1N1CCC(N(C)C2CCCCC2)CC1 [compound 19]
[ask] Hi, I'm comparing A with B and wondering which one has the bigger number for IC50. Any idea? // output: label of the selected item
[reply] B
(B: 2700 nM, A: 298 nM)

[a] CCC(CC)NC1CCN(c2nc3ccccc3cc2-c2nc(C)no2)CC1 [compound 237]
[b] Cc1ccc2nc(N3CCC(NC4CCC[C@@H]4O)CC3)c(-c3noc(C)n3)cc2c1 (stereo partly drawn) [compound 440]
[ask] Between a and b , which one shows the smaller IC50 number? Identify your selection by its label.
[reply] a
